- ASSAY TARGET: OCT1*1B (Homo sapiens, UniProt O15245, L160F)
- PROCEDURE DETAILS: in vitro
- CONDITION LABEL: HEK293 cells overexpressing OCT1*1B, pH 7.4, Km (± SEM), OCT1*1B reference allele, 10-600 μM ranitidine, control-cell uptake subtracted
PROPERTY NAME: Km at 2 min (µM)

                           chemical_string  observed_result
0  CNC(=C[N+](=O)[O-])NCCSCc1ccc(CN(C)C)o1             62.9

###

- ASSAY TARGET: OCT1*1 (Homo sapiens, UniProt O15245, L160F)
- Construct: expressed in transfected cells; host or cells: HEK293 T-REx (Flp-In)
- Sequence (O15245 1-554 L160F): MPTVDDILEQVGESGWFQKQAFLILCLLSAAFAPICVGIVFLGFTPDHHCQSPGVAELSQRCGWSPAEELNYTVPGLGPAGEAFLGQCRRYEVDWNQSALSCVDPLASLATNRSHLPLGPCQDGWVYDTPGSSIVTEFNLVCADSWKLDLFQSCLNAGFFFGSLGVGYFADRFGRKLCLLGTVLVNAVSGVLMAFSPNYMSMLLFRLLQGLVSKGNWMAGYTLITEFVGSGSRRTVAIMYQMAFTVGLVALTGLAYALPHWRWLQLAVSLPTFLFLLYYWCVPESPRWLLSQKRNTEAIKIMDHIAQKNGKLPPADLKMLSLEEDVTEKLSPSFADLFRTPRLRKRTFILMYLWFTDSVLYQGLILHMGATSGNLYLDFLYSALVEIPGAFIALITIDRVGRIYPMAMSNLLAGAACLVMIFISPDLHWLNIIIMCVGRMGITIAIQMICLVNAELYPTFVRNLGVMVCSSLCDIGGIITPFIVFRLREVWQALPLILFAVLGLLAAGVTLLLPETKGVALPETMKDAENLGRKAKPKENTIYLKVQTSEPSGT
- PROCEDURE DETAILS: Inhibition by ranitidine of OCT1-mediated substrate uptake, reference allele, HEK293 cells
- Assay type: cell-based
- CONDITION LABEL: substrate 100 μM metformin, OCT1*1, 2 min, HEK293
PROPERTY NAME: IC50 (µM)

>>> print(df.to_string())
                           chemical_string  property_name  observed_result
0  CNC(=C[N+](=O)[O-])NCCSCc1ccc(CN(C)C)o1           IC50             20.9

###

- ASSAY TARGET: OCT1*2 (Met420del) (Homo sapiens, UniProt O15245, DEL420-420/L160F)
- PROCEDURE DETAILS: Inhibition by ranitidine of OCT1-mediated substrate uptake, OCT1*2 allele, HEK293 cells
- Assay type: cell-based
- Parameters: expressed in transfected cells; host or cells: HEK293 T-REx (Flp-In)
- CONDITION LABEL: substrate 0.1 μM MPP+, OCT1*2, 2 min, HEK293
pIC50: −log10 of the molar value.
PROPERTY NAME: pIC50

>>> df
                                   molecule  observed_result
0  CNC(=C[N+](=O)[O-])NCCSCc1ccc(CN(C)C)o1 [ranitidine, Ranitidine]             4.46
